experiment: Cellular viability qHTS for adrenocortical cancer (ACC) cell line NCI-H295R (AID 1963990); note: nearly all actives have a fitted effect of over 60% in size; note: potency is the fitted concentration of half-maximal effect
experimental-parameters: CellTiter-Glo ATP luminescence, 48 h; series mostly up to 46.1 µM
Records with an inconclusive call do not appear. Active and inactive are the calls of the source. Calls come from the whole dose curve; as a rule, active = well fitted cell-killing curve with a large enough effect; inconclusive = small, poorly fitted or top-dose-only effect; inactive = flat fitted curve, though single readings scatter.
endpoint-label: Potency

compound	Potency
O=C(NOCCO)c1cc(CN2OCCCC2=O)c(F)c(F)c1Nc1ccc(I)cc1F	25.1 µM (active)
CCN1CCCC(OC(=O)C(c2ccccc2)c2ccccc2)C1 (configuration not stated)	inactive
Nc1ccc2cc3ccc(N)cc3nc2c1	2.59 µM (active)
CCOC(=O)C1=C[C@@H](OC(CC)CC)[C@H](NC(C)=O)[C@@H](N)C1	inactive
CCN(CC)CCCC(C)Nc1c2ccc(Cl)cc2nc2ccc(OC)cc12 (configuration not stated)	14.1 µM (active)
O=C1CC[C@@H](C(=O)O)N1	inactive

What measured Potency goes with C[Se]CCC(N)C(=O)O (configuration not stated) ?
inactive

What Potency value was documented for this compound, "O=c1ncn2nc(Sc3ccc(F)cc3F)ccc2c1-c1c(Cl)cccc1Cl" ?
inactive

Can you look up the measured Potency of "Oc1c(I)cc(I)c2cccnc12" for me?
3.66 µM (active)

Measured values drawn from PubChem BioAssay (NCATS) for this set.
